# Tested on: cortical neuron cultures
# experiment.summary: Cortical neuron assay (neurite outgrowth in dissociated cortical neuron cultures)
# Format: cell-based, rat
# test.conditions: Rattus norvegicus, Cortical neurone; 72 hours treatment, neurite outgrowth; read-out: EC50 in cortical neuron assays
Please go through the items and note down their EC50.

Q: Provide value of EC50 for this record tested with cortical neuron cultures: CO[C@H]1C[C@@H]2CC[C@@H](C)[C@@](O)(O2)C(=O)C(=O)N2CCCC[C@H]2C(=O)O[C@H]([C@H](C)C[C@@H]2CC[C@@H](O)[C@H](OC)C2)CC(=O)[C@H](C)/C=C(\C)[C@@H](O)[C@@H](OC)C(=O)[C@H](C)C[C@H](C)[C@@H]2CC[C@H](/C=C/1C)ON2c1ccccc1
A: < 1000 nM

Q: Param readout= EC50; system= cortical neuron cultures; entry= CO[C@H]1C[C@@H]2CC[C@@H](C)[C@@](O)(O2)C(=O)C(=O)N2CCCC[C@H]2C(=O)O[C@H]([C@H](C)C[C@@H]2CC[C@@H](OC(=O)C(C)(CO)CO)[C@H](OC)C2)CC(=O)[C@H](C)/C=C(\C)[C@@H](O)[C@@H](OC)C(=O)[C@H](C)C[C@H](C)/C=C/C=C/C=C/1C [CCI-779, reference compound] ; returns value.
A: > 1000 nM

Q: Give recorded EC50 with cortical neuron cultures for the following compound: CO[C@H]1C[C@@H]2CC[C@@H](C)[C@@](O)(O2)C(=O)C(=O)N2CCCC[C@H]2C(=O)O[C@H]([C@H](C)C[C@@H]2CC[C@@H](O)[C@H](OC)C2)CC(=O)[C@H](C)/C=C(\C)[C@@H](O)[C@@H](OC)C(=O)[C@H](C)C[C@H](C)/C=C/C=C/C=C/1C
A: > 1000 nM

Q: Provide the documented EC50 with cortical neuron cultures as the system for CO[C@H]1C[C@@H]2CC[C@@H](C)[C@@](O)(O2)C(=O)C(=O)N2CCCC[C@H]2C(=O)O[C@H]([C@H](C)C[C@@H]2CC[C@@H](O)[C@H](OC)C2)CC(=O)[C@H](C)/C=C(\C)[C@@H](O)[C@@H](OC)C(=O)[C@H](C)C[C@H](C)C2C=CC(/C=C/1C)ON2c1c(Cl)cccc1Cl
A: < 1000 nM

Q: Fill in the recorded EC50 for this compound, with cortical neuron cultures as test system: CO[C@H]1C[C@@H]2CC[C@@H](C)[C@@](O)(O2)C(=O)C(=O)N2CCCC[C@H]2C(=O)O[C@H]([C@H](C)C[C@@H]2CC[C@@H](O)[C@H](OC)C2)CC(=O)[C@H](C)/C=C(\C)[C@@H](O)[C@@H](OC)C(=O)[C@H](C)C[C@H](C)[C@@H]2C=C[C@H](/C=C/1C)ON2c1ccccc1
A: < 1000 nM

---

# Test system: Spinal cord neuron cultures
# experiment.summary: Spinal cord neuron assay
# Assay type: cell-based
# test.conditions: Rattus norvegicus, 72 hours treatment, read-out: EC50 in spinal cord neuron assays
pEC50: −log10 of the molar value.
metric.name: pEC50

Q: Request: pEC50, test system Spinal cord neuron cultures, entry CO[C@H]1C[C@@H]2CC[C@@H](C)[C@@](O)(O2)C(=O)C(=O)N2CCCC[C@H]2C(=O)O[C@H]([C@H](C)C[C@@H]2CC[C@@H](O)[C@H](OC)C2)CC(=O)[C@H](C)/C=C(\C)[C@@H](O)[C@@H](OC)C(=O)[C@H](C)C[C@H](C)C2C=CC(/C=C/1C)ON2c1c(Cl)cccc1Cl [Example 3]
A: > 6.00

Q: Short answer please: pEC50, Spinal cord neuron cultures, entry CO[C@H]1C[C@@H]2CC[C@@H](C)[C@@](O)(O2)C(=O)C(=O)N2CCCC[C@H]2C(=O)O[C@H]([C@H](C)C[C@@H]2CC[C@@H](O)[C@H](OC)C2)CC(=O)[C@H](C)/C=C(\C)[C@@H](O)[C@@H](OC)C(=O)[C@H](C)C[C@H](C)[C@@H]2C=C[C@H](/C=C/1C)ON2c1ccccc1 [Example 1]
A: > 6.00

Q: API: value(readout=pEC50, system=Spinal cord neuron cultures) for record CO[C@H]1C[C@@H]2CC[C@@H](C)[C@@](O)(O2)C(=O)C(=O)N2CCCC[C@H]2C(=O)O[C@H]([C@H](C)C[C@@H]2CC[C@@H](OC(=O)C(C)(C)Cc3ccccn3)[C@H](OC)C2)CC(=O)[C@H](C)/C=C(\C)[C@@H](O)[C@@H](OC)C(=O)[C@H](C)C[C@H](C)C2C=CC(/C=C/1C)ON2c1ccccc1 [Example 6]
A: > 6.00

Q: Value wanted: pEC50 (Spinal cord neuron cultures) of entry CO[C@H]1C[C@@H]2CC[C@@H](C)[C@@](O)(O2)C(=O)C(=O)N2CCCC[C@H]2C(=O)O[C@H]([C@H](C)C[C@@H]2CC[C@@H](O)[C@H](OC)C2)CC(=O)[C@H](C)/C=C(\C)[C@@H](O)[C@@H](OC)C(=O)[C@H](C)C[C@H](C)[C@@H]2CC[C@H](/C=C/1C)ON2c1ccccc1 [Example 2]
A: > 6.00
